Test target: α-1B adrenoceptor (rat spleen) (Rattus norvegicus, UniProt P15823)
Construct: PE-induced contraction of rat spleen; from tissue; host or cells: isolated rat spleen
Sequence (P15823 whole entry): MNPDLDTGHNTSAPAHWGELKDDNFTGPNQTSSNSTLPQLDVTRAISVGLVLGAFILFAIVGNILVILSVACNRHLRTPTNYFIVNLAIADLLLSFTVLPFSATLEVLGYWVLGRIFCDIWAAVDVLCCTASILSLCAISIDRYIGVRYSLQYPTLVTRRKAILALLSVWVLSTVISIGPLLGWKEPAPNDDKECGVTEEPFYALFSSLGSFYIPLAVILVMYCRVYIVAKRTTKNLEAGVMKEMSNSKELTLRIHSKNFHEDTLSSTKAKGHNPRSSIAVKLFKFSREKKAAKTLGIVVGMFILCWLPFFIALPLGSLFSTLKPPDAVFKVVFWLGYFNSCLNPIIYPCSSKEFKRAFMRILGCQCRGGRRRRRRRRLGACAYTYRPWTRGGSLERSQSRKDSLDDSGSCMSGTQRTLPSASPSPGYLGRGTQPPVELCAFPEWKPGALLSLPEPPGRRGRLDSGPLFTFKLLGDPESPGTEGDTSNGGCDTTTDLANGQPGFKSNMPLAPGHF
Experiment description: Functional antagonism of phenylephrine-induced contraction of rat spleen
Format: cell-based
Test context: vs phenylephrine-induced contraction, Schild plot
Where a name gives a salt, the structure may show the parent alone.
Measure name: pA2 Rat Spleen [α-1B]

>  <Compound>
COc1cccc2c1CC[C@H]1CN(CCn3c(=O)[nH]c4c(OC)c(OC)ccc4c3=O)C[C@@H]21 [Example 81, hydrochloride]

>  <Test target>
α-1B adrenoceptor (rat spleen) (Rattus norvegicus, UniProt P15823)

>  <Measure name>
pA2 Rat Spleen [α-1B]

>  <Observed>
8.15

$$$$
>  <Compound>
COc1cccc2c1CC[C@@H]1CN(CCn3c(=O)[nH]c4ccccc4c3=O)C[C@H]21 (relative stereo) [Example 1, hydrochloride]

>  <Test target>
α-1B adrenoceptor (rat spleen) (Rattus norvegicus, UniProt P15823)

>  <Measure name>
pA2 Rat Spleen [α-1B]

>  <Observed>
8

$$$$
>  <Compound>
COc1cc2[nH]c(=O)n(CCN3C[C@@H]4CCc5c(OC)cccc5[C@@H]4C3)c(=O)c2cc1OC [Example 39, hydrochloride]

>  <Test target>
α-1B adrenoceptor (rat spleen) (Rattus norvegicus, UniProt P15823)

>  <Measure name>
pA2 Rat Spleen [α-1B]

>  <Observed>
7.52

$$$$
>  <Compound>
COc1cc2nc(N3CCN(C(=O)C4CCCO4)CC3)nc(N)c2cc1OC (stereo not shown) [terazosin]

>  <Test target>
α-1B adrenoceptor (rat spleen) (Rattus norvegicus, UniProt P15823)

>  <Measure name>
pA2 Rat Spleen [α-1B]

>  <Observed>
8.6

$$$$
